The origin of these recorded values is ChEMBL document CHEMBL4052615.

Would you kindly list inhibition for each of these compounds?
# measured target: Metabotropic glutamate receptor 5 (Homo sapiens, UniProt P41594)
# test details: Displacement of [3H]M-MPEP from mGluR5 (unknown origin) at 1 uM measured after 60 mins relative to control
# Sequence (P41594 21-1212 limits assumed): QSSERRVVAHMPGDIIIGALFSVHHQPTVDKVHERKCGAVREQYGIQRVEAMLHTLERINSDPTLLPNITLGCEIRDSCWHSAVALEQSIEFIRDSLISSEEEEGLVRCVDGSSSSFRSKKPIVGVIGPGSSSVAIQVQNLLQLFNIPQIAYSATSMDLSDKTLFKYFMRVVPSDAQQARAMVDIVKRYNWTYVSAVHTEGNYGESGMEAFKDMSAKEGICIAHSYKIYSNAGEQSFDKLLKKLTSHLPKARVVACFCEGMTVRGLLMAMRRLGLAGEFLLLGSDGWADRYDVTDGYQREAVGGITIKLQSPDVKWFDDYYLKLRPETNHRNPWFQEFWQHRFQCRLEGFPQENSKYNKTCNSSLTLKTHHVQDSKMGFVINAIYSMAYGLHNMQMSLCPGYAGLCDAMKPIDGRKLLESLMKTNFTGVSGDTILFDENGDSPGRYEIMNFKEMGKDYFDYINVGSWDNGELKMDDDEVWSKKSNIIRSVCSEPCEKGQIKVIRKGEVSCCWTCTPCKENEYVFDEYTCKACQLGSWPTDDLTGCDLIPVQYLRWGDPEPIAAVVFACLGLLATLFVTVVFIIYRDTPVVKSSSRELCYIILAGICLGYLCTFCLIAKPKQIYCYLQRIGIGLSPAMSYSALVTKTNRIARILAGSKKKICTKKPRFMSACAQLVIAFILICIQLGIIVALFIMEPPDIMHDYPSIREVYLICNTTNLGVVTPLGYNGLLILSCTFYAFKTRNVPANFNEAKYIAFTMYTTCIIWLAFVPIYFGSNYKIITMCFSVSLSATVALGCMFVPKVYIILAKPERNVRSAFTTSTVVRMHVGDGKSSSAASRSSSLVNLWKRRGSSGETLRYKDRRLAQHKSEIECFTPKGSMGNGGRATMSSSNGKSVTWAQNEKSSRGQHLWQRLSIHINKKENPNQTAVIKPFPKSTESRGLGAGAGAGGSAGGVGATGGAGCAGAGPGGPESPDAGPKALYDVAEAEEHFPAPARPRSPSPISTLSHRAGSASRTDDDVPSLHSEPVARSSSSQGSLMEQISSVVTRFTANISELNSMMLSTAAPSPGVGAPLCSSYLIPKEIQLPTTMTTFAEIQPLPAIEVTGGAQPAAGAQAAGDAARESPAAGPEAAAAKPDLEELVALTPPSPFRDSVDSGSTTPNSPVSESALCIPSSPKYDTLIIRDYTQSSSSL
One number for each entry, in %.

Consider the following illustrative entries.
>  <structure string>
CC1CCN(c2c(S(=O)(=O)c3ccc(F)cc3)cnc3ccc(F)cc23)CC1

>  <measured target>
Metabotropic glutamate receptor 5 (Homo sapiens, UniProt P41594)

>  <inhibition, %>
87

$$$$
>  <structure string>
COc1ccc2ncc(S(=O)(=O)c3cc(Cl)cc(Cl)c3)c(N3CCOCC3)c2c1

>  <measured target>
Metabotropic glutamate receptor 5 (Homo sapiens, UniProt P41594)

>  <inhibition, %>
23

$$$$
>  <structure string>
O=S(=O)(c1ccc(Cl)c(Cl)c1)c1cnc2ccc(F)cc2c1N1CCOCC1

>  <measured target>
Metabotropic glutamate receptor 5 (Homo sapiens, UniProt P41594)

>  <inhibition, %>
68

$$$$
>  <structure string>
CC1CCN(c2c(S(=O)(=O)c3ccc(F)cc3)cnc3cc(Cl)ccc23)CC1

>  <measured target>
Metabotropic glutamate receptor 5 (Homo sapiens, UniProt P41594)

>  <inhibition, %>
91

$$$$

Turning now to a further compound:
In: If you can, please state the reported inhibition value of COc1ccc2ncc(S(=O)(=O)c3ccc(OC)c(Cl)c3)c(N3CCC(C)CC3)c2c1 .
Out: 21

====

# measured target: Metabotropic glutamate receptor 5 (Homo sapiens, UniProt P41594)
Strictly below 200 nM in Ki: y. Otherwise: n.

>  <structure string>
CC1CCN(c2c(S(=O)(=O)c3cc(F)cc(F)c3)cnc3cc(Cl)ccc23)CC1

>  <category label>
y

$$$$
>  <structure string>
CC1CCN(c2c(S(=O)(=O)c3ccc(Cl)cc3)cnc3ccc(Cl)cc23)CC1

>  <category label>
n

$$$$
>  <structure string>
O=S(=O)(c1ccccc1)c1cnc2ccccc2c1N1CCCCC1

>  <category label>
n

$$$$

Next:
In: # strict comparison: is reported Ki < 200 nM? input = CC1CCN(c2c(S(=O)(=O)c3ccccc3)cnc3ccccc23)CC1
Out: y

====

# measured target: Metabotropic glutamate receptor 5 (Homo sapiens, UniProt P41594)
# test details: Displacement of [3H]M-MPEP from mGluR5 (unknown origin) at 1 uM measured after 60 mins relative to control
Output 1 (yes) for inhibition not less than 60%; output 0 (no) otherwise.

Example results:
>  <structure string>
CC1CCN(c2c(S(=O)(=O)c3ccc(F)cc3)cnc3c(F)cccc23)CC1

>  <category label>
0 (no)

$$$$
>  <structure string>
CC1CCN(c2c(S(=O)(=O)c3cccc(F)c3)cnc3ccc(Cl)cc23)CC1

>  <category label>
0 (no)

$$$$
>  <structure string>
O=S(=O)(c1ccc(F)c(F)c1)c1cnc2cc(Cl)ccc2c1N1CCOCC1

>  <category label>
0 (no)

$$$$
>  <structure string>
O=S(=O)(c1cccc(Cl)c1)c1cnc2ccc(Cl)cc2c1N1CCOCC1

>  <category label>
0 (no)

$$$$
>  <structure string>
CC1CCN(c2c(S(=O)(=O)c3cc(F)cc(F)c3)cnc3c(F)cccc23)CC1

>  <category label>
0 (no)

$$$$

In: Would you say O=S(=O)(c1cccc(F)c1)c1cnc2cc(Cl)ccc2c1N1CCC(CO)CC1 shows inhibition at minimum 60%?
Out: 1 (yes)

In: Would you say Cc1ccc2ncc(S(=O)(=O)c3cccc(C#N)c3)c(N3CCOCC3)c2c1 shows inhibition at minimum 60%?
Out: 0 (no)

In: Would you say Cc1ccc(S(=O)(=O)c2cnc3c(F)cccc3c2N2CCOCC2)cc1F shows inhibition at minimum 60%?
Out: 1 (yes)

In: Would you say O=S(=O)(c1cccc(F)c1)c1cnc2c(F)cccc2c1N1CCOCC1 shows inhibition at minimum 60%?
Out: 0 (no)

In: Would you say O=S(=O)(c1cc(F)cc(F)c1)c1cnc2ccc(F)cc2c1N1CCOCC1 shows inhibition at minimum 60%?
Out: 0 (no)
